- system tested: Genome polyprotein (Dengue virus type 2 (strain 16681-PDK53)) (UniProt P29991)
- protocol summary: flavivirus cap methylation enzyme inhibition – biochemical, confirmation dose response, primary screen (AID 588689)
- measurement conditions: Dengue-2 NS5 methyltransferase capping enzyme assay, at 25 µM, stronger effect = higher value
About 1,000 (0.29%) of roughly 340,000 compounds were called active. Only a sample is shown. Results with a measured potency or affinity are listed apart.
Provide the reported inhibition of each item.
Give a bare numeral; the unit % is implied.

INPUT: Return reported inhibition; argument: "CCC(C)(C)NC(=O)Cn1c(-c2ccccc2)cc(C(C)=O)c1C"
OUTPUT: 1.78

INPUT: Return reported inhibition; argument: "C/C(=C\c1cccc(Cl)c1)C(=O)c1c(C)cc(C)[nH]c1=O"
OUTPUT: 0.68

INPUT: Return reported inhibition; argument: "CCOc1cc(/C=C2\NC(=O)NC2=O)cc([N+](=O)[O-])c1O"
OUTPUT: 71.9

INPUT: Return reported inhibition; argument: "CC(=O)N1C(=O)/C(=C2\SC(=S)N(NS(=O)(=O)c3ccc(C)cc3)C2=O)c2ccccc21"
OUTPUT: 5.31

INPUT: Return reported inhibition; argument: "Cc1cc(C(=O)COC(=O)c2n[nH]c(=O)c3ccccc23)c(C)n1C(C)C"
OUTPUT: -4.04

INPUT: Return reported inhibition; argument: "COc1ccccc1N(CC(=O)NCCSc1ccccc1)S(=O)(=O)c1ccccc1"
OUTPUT: -5.79

INPUT: Return reported inhibition; argument: "Cc1nnc(NC(=O)CSc2nnc(CCNC(=O)c3ccccc3F)n2C)s1"
OUTPUT: -9.78

INPUT: Return reported inhibition; argument: "CCOc1cc(/C=C2/C(=O)N(c3ccccc3)N=C2C)ccc1OC(=O)c1ccco1"
OUTPUT: 19.1

INPUT: Return reported inhibition; argument: "Cc1cccc(OCC(=O)NC(=S)Nc2ccc(S(=O)(=O)NC3CCCCC3)cc2)c1"
OUTPUT: 0

INPUT: Return reported inhibition; argument: "COc1cc(/C=C2\C(=N)N3N=C(S(C)(=O)=O)SC3=NC2=O)ccc1OC(=O)c1ccco1"
OUTPUT: -59.7

---

- system tested: Genome polyprotein (Dengue virus type 2 (strain 16681-PDK53)) (UniProt P29991)
- protocol summary: flavivirus cap methylation enzyme inhibition – biochemical, confirmation dose response, primary screen (AID 588689)
- measurement conditions: Dengue-2 NS5 methyltransferase capping enzyme assay, at 25 µM, stronger effect = higher value
In all, about 340,000 compounds went through this assay and about 1,000 (0.29%) were called active. These entries were drawn from the full list. Measured potencies and affinities stand elsewhere.
outcome measure: inhibition (%)
Give a bare numeral; the unit % is implied.

INPUT: Return reported inhibition; argument: "COCCC(=O)NNS(=O)(=O)c1ccc(Cl)cc1"
OUTPUT: 5.47

INPUT: Return reported inhibition; argument: Cc1ccnc(NC(=O)C2CCCN(c3ncnc4c3nc3n4CCCCC3)C2)c1 (stereo unspecified)
OUTPUT: 0.45

INPUT: Return reported inhibition; argument: "O=C(COC(=O)/C=C/c1ccccc1Cl)NC(=O)NC1CCCC1"
OUTPUT: -7.24

INPUT: Return reported inhibition; argument: "CN(C)c1ccc(C=c2c3ccccc3n3c2cc(-c2ccccc2)[n+]3C)cc1"
OUTPUT: 16.6

INPUT: Return reported inhibition; argument: CCCCC1=CC2=CC(=O)C(C)(OC(=O)C3CCCC3)C(=O)C2=CO1 (stereo unspecified)
OUTPUT: -4.96

INPUT: Return reported inhibition; argument: COC(=O)CCCC1=CC2=CC(=O)C(C)(OC(=O)C3CCCC3)C(=O)C2=CO1 (stereo unspecified)
OUTPUT: -2.4

INPUT: Return reported inhibition; argument: "O=c1c(C(c2ccc(F)cc2)c2c(O)nc3n(c2=O)CCS3)c(O)nc2n1CCS2"
OUTPUT: -0.78

INPUT: Return reported inhibition; argument: "COc1cc(C=c2c3ccccc3n3c2cc(-c2ccccc2)[n+]3C)cc(OC)c1OC"
OUTPUT: -32.8

INPUT: Return reported inhibition; argument: "Clc1ccc(OCCn2cnc(Cl)c2Cl)cc1"
OUTPUT: 2.87

INPUT: Return reported inhibition; argument: COc1cccc(N=C2SC(CC(=O)Nc3ccccc3)C(=O)N2Cc2ccccn2)c1 (stereo unspecified)
OUTPUT: -4.38

INPUT: Return reported inhibition; argument: "N=C1/C(=C\c2ccc(OC(=O)c3ccccc3Cl)cc2)C(=O)N=C2SC(N3CCOCC3)=NN12"
OUTPUT: 34.8

INPUT: Return reported inhibition; argument: "CC(=O)Nc1ccc(-c2csc(NC(=O)C3CCN(S(=O)(=O)c4cccs4)CC3)n2)cc1"
OUTPUT: -5.78

INPUT: Return reported inhibition; argument: "COc1ccc(/C=C/C(=O)c2cc(Br)ccc2O)cc1OC"
OUTPUT: 0.78

INPUT: Return reported inhibition; argument: "N=C1/C(=C\c2ccc(OC(=O)c3ccc(F)cc3)cc2)C(=O)N=C2SC(N3CCCC3)=NN12"
OUTPUT: -2.77

INPUT: Return reported inhibition; argument: "Cn1c(=O)cc(N)n(-c2ccccc2)c1=O"
OUTPUT: 1.3

INPUT: Return reported inhibition; argument: "COc1ccc(N=C(c2ccccc2)c2c(C)[nH]n(-c3ccccc3)c2=O)c(OC)c1"
OUTPUT: -10.3

INPUT: Return reported inhibition; argument: "O=C(CNC(=O)c1ccc(F)cc1)N/N=C/c1cn[nH]c1-c1ccccc1"
OUTPUT: -12.6

INPUT: Return reported inhibition; argument: "COc1ccc(C(c2c(C)n(C)n(-c3ccccc3)c2=O)c2c(C)n(C)n(-c3ccccc3)c2=O)cc1OC"
OUTPUT: -2.72

INPUT: Return reported inhibition; argument: CC(NC(=O)c1ccco1)C(=O)NC(C)c1cc(F)c(Cl)cc1Cl (stereo unspecified)
OUTPUT: -1.62

INPUT: Return reported inhibition; argument: "C[n+]1c(-c2ccccc2)cc2c(=Cc3ccccc3)c3ccccc3n21"
OUTPUT: -8.87

INPUT: Return reported inhibition; argument: COc1ccc(C(C[N+](=O)[O-])c2c(C)[nH]n(-c3ccccc3)c2=O)cc1 (stereo unspecified)
OUTPUT: -13.7

---

Provide the reported inhibition of each item.
- system tested: Genome polyprotein (Dengue virus type 2 (strain 16681-PDK53))
- protocol summary: flavivirus cap methylation enzyme inhibition – biochemical, confirmation dose response, primary screen (AID 588689)
- measurement conditions: Dengue-2 NS5 methyltransferase capping enzyme assay, at 25 µM, stronger effect = higher value
The campaign covered roughly 340,000 compounds. About 1,000 (0.29%) were called active. These entries were drawn from the full list. Entries with a potency or affinity are not part of this list.
Give a bare numeral; the unit % is implied.

INPUT: Return reported inhibition; argument: "COc1cccc(C(c2c(O)nc(SC)n(C)c2=O)c2c(O)nc(SC)n(C)c2=O)c1"
OUTPUT: 16.2

INPUT: Return reported inhibition; argument: "COc1ccc(CN(C)C(=O)Cn2cnc3c(OCc4ccccc4)ncnc32)cc1OC"
OUTPUT: 3.64

INPUT: Return reported inhibition; argument: "CC[C@H](C)Cc1cn([C@@H](CCCN=C(NC(=O)OC(C)(C)C)NC(=O)OC(C)(C)C)C(=O)NCCCCCCCCCCC(=O)N2CCN(C(=O)OC(C)(C)C)CC2)nn1"
OUTPUT: -0.83

INPUT: Return reported inhibition; argument: "CCOC(=O)N1CCC(N2C(=O)c3ccc(C(=O)NCCC(C)C)cc3C2=O)CC1"
OUTPUT: -0.65

INPUT: Return reported inhibition; argument: "Cc1c(N=C2C(=O)Nc3ccccc32)c(=O)n(-c2ccccc2)n1C"
OUTPUT: 2.78

INPUT: Return reported inhibition; argument: CCC(Oc1ccccc1)C(=O)NCCOC (stereo not drawn)
OUTPUT: -3.68

INPUT: Return reported inhibition; argument: "Fc1cccc(COc2ccccc2C(=S)N2CCCC2)c1"
OUTPUT: -5.22

INPUT: Return reported inhibition; argument: "COC(=O)c1c(C(=O)OC)c(-c2ccccc2)n2c1CCC2"
OUTPUT: 1.6

INPUT: Return reported inhibition; argument: COc1ccc(C(=O)N/N=C(\C)c2ccc3c(c2)C2C=CCC2C(c2ccccc2)N3)cc1 (stereo not drawn)
OUTPUT: 2.59

INPUT: Return reported inhibition; argument: "CCCCc1ccc(/C=C(\C#N)C(N)=S)s1"
OUTPUT: 0

INPUT: Return reported inhibition; argument: O=C(O)c1ccc2c(c1)C1C=CCC1C(c1cc3c(cc1Br)OCO3)N2 (stereo not drawn)
OUTPUT: 6.19

INPUT: Return reported inhibition; argument: "Cc1ccc(C(=O)NC(=S)Nc2ccc(N3CCOCC3)cc2)c(C)c1"
OUTPUT: -1.43

INPUT: Return reported inhibition; argument: "O=S(=O)(Nc1ccc2c(c1)nc1n2CCOC1)c1ccc(Cl)cc1"
OUTPUT: -6.15

INPUT: Return reported inhibition; argument: CC(=O)c1ccc2c(c1)C1C=CCC1C(c1ccc(S(=O)(=O)N3CCOCC3)cc1)N2 (stereo not drawn)
OUTPUT: 11.6

INPUT: Return reported inhibition; argument: "CCSc1nc2cc(OC)c(OC)cc2c(=O)n1CC"
OUTPUT: 2.71

INPUT: Return reported inhibition; argument: CCC(C)C1=CC(=Nc2c(C)n(C)n(-c3ccccc3)c2=O)C=C(C(C)CC)C1=O (stereo not drawn)
OUTPUT: 4.41

INPUT: Return reported inhibition; argument: COc1ccc(N(C(=O)c2ccco2)C(C(=O)NC2CCCC2)c2ccc(OC)c(OC)c2)cc1 (stereo not drawn)
OUTPUT: -4.04

INPUT: Return reported inhibition; argument: COc1ccc2c(c1OC)C(=O)N1C(C(=O)O)Cc3c([nH]c4ccccc34)C21 (stereo not drawn)
OUTPUT: -3.23

INPUT: Return reported inhibition; argument: "CCOc1ccc(-c2cn(-c3ccc(OC)cc3)c(SC)n2)cc1"
OUTPUT: -2.59

INPUT: Return reported inhibition; argument: CC1CN(C(=O)c2nn(C)cc2[N+](=O)[O-])CC(C)O1 (stereo not drawn)
OUTPUT: -1.37

INPUT: Return reported inhibition; argument: COC(=O)c1ccc(C2Nc3ccc(/C(C)=N/NC(=O)C(OC)c4ccccc4)cc3C3C=CCC32)cc1 (stereo not drawn)
OUTPUT: -4.05

INPUT: Return reported inhibition; argument: "Cc1cc2ccccc2n2c(SCC(=O)N3CCOCC3)nnc12"
OUTPUT: -8.09

INPUT: Return reported inhibition; argument: "CCc1ccc(/C=C(/C#N)C(N)=S)s1"
OUTPUT: 0

INPUT: Return reported inhibition; argument: "COc1ccc(C(c2c(O)nc(SC)n(C)c2=O)c2c(O)nc(SC)n(C)c2=O)cc1O"
OUTPUT: -4.46

INPUT: Return reported inhibition; argument: "CCOc1ccc(C(=O)CSc2nnc(C3CC3)n2C)cc1"
OUTPUT: -4.8

INPUT: Return reported inhibition; argument: "O=S(=O)(NCc1nnc2ccccn12)c1ccc(F)cc1"
OUTPUT: -3.63

INPUT: Return reported inhibition; argument: "COc1cccc(NS(=O)(=O)c2ccc3c(c2)CC(=O)N3)c1"
OUTPUT: -6.98

INPUT: Return reported inhibition; argument: "CC(/C=N/n1c(-c2ccco2)n[nH]c1=S)=C\c1ccccc1"
OUTPUT: 1.83

INPUT: Return reported inhibition; argument: "CCOc1ccc(/C=C2\SC(=S)N(CCC(=O)O)C2=O)cc1"
OUTPUT: 10.9

INPUT: Return reported inhibition; argument: "Cc1c(N=c2scc(-c3ccccc3)n2C)c(=O)n(-c2ccccc2)n1C"
OUTPUT: -7.91

INPUT: Return reported inhibition; argument: "COC(=O)[C@@]1(Cc2ccccc2)[C@H]2C(=O)N(C)C(=O)[C@H]2[C@H]2CN=C(SCc3ccc(C)cc3)N21"
OUTPUT: 1.99

INPUT: Return reported inhibition; argument: "O=C(COc1ccc(F)c(Cl)c1)Nc1ccc(N2CCOCC2)cc1"
OUTPUT: -11.9

INPUT: Return reported inhibition; argument: "Cc1cccc(/C=N/n2c(C)cc(C)c(C#N)c2=O)c1"
OUTPUT: -3.26

INPUT: Return reported inhibition; argument: O=C(Nc1ncccc1Cl)C(Sc1ccccc1)c1ccccc1 (stereo not drawn)
OUTPUT: -1.88

INPUT: Return reported inhibition; argument: "Cc1c(Br)c(=O)oc2c(Br)c(O)c(O)cc12"
OUTPUT: 6.73

INPUT: Return reported inhibition; argument: "O=C(NCc1ccccn1)c1cc(S(=O)(=O)N2CCCCCC2)ccc1Cl"
OUTPUT: 1.3

INPUT: Return reported inhibition; argument: "O=C(c1cccnc1)N1CCN(S(=O)(=O)c2cccc(Cl)c2)CC1"
OUTPUT: 2.63

INPUT: Return reported inhibition; argument: "Cc1cc(C)n(CC(=O)NNC(=O)COc2ccc(Cl)cc2Cl)n1"
OUTPUT: -9.01

INPUT: Return reported inhibition; argument: "Cc1ccc(/C=C/C2=NN(Cc3ccccc3Cl)C(=O)CC2)cc1"
OUTPUT: -2.71

INPUT: Return reported inhibition; argument: "CN(C(=O)COC(=O)c1ccc(Cl)s1)C1(C#N)CCCCC1"
OUTPUT: -4.33

INPUT: Return reported inhibition; argument: "COc1cc(/C=C2/SC(=S)N(CC(=O)O)C2=O)ccc1OC(=O)c1ccco1"
OUTPUT: -8.15

INPUT: Return reported inhibition; argument: "CC(=O)c1ccc(Sc2ccccc2)c([N+](=O)[O-])c1"
OUTPUT: 3.06

INPUT: Return reported inhibition; argument: "COc1ccc(/C=C/C(=O)NC(C)(C)C)cc1S(=O)(=O)N1CCOCC1"
OUTPUT: 3.24

Hey, just so you know, these numbers are from PubChem BioAssay AID588689.
